activity for assorted binders
molecular target: SARS-CoV-2 spike receptor-binding domain (RBD) (SARS-CoV-2 (Wuhan strain), UniProt P0DTC2 P0DTC2:319-541); assay: ELONA; conditions: tags: N-terminal His tag, pET-15b, E. coli BL21 Star (DE3), about 26 kDa

{"binder": "ATTTAAAGGGGGCGCTCCGTATGGGTTTGTCCGATTAGCT (ssDNA) [AptRBD8.1]", "activity, ng/mL": 8}
{"binder": "AGCGGTTCGATGCGTATGGTTTGTCCGAT (ssDNA) [AptRBD3.3]", "activity, ng/mL": 4}
{"binder": "ATTTAAAGCGCTTCGATGCGTATGGGTTTGTCCGAT (ssDNA) [AptRBD6.1]", "activity, ng/mL": 4}
{"binder": "ATTTAAAGCGGTTCGATGCGTATGGTTTGTCCGAT (ssDNA) [AptRBD3.2]", "activity, ng/mL": 4}
{"binder": "ATTTAAAGCGGTTCGATGCGTATGGTTTGTCCGATTCGGT (ssDNA) [AptRBD3.1]", "activity, ng/mL": 4}
